Target: Cholecystokinin receptor type A (Homo sapiens) (UniProt P32238)
Sequence (P32238 whole entry): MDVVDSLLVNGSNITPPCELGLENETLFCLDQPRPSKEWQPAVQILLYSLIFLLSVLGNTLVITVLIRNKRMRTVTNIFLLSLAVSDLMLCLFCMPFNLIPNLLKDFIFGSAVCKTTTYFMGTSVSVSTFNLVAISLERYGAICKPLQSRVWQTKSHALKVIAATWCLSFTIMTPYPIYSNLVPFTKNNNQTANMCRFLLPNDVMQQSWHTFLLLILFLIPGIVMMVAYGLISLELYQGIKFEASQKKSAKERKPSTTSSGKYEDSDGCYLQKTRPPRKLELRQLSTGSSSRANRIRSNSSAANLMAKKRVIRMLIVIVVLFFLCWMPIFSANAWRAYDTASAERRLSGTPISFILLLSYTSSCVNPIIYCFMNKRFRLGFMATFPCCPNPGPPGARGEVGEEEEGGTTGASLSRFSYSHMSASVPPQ
Assay: Displacement of [125I]-CCK-8 from human CCK1R expressed in human 1321N1 cell membranes after 2 hrs by SPA assay
Active and inactive are the calls of the source. The rule behind the calls is not given here. Numbered stars: 1 amine (or outer) side, 2 acyl side, 3 side chain; on linkers, the order of the positions; unused ones are H or OH. Square brackets hold non-standard residues; d marks the D form. Peptide text beside a SMILES is read from it. * marks the point of attachment. sY = N[C@@H](Cc1ccc(OS(=O)(=O)O)cc1)C(=O)O; C18 diacid = O=C(O)CCCCCCCCCCCCCCCCC(=O)*; γGlu = O=C(O)[C@H](CCC(=O)[*:2])N[*:1]; Nle = CCCC[C@H](N)C(=O)O; AEEA = NCCOCCOCC(=O)O
Outcomes: YES (active), NO (inactive)

{"columns": ["Compound", "Group Label"],
 "data": [
  ["CCCC[C@H](NC(=O)[C@H](Cc1ccc(OS(=O)(=O)O)cc1)NC(=O)[C@H](CC(=O)O)NC(=O)COCCOCCNC(=O)COCCOCCNC(=O)CC[C@H](NC(=O)CCCCCCCCCCCCCCCCC(=O)O)C(=O)O)C(=O)NCC(=O)N[C@@H](Cc1c[nH]c2ccccc12)C(=O)N[C@@H](Cc1ccccc1)C(=O)N[C@@H](CC(=O)O)C(=O)N[C@@H](Cc1ccccc1)C(N)=O ({C18 diacid-γGlu-AEEA-AEEA}-D[sY][Nle]GWFDF-NH2)", "NO"],
  ["CCCC[C@H](NC(=O)[C@H](Cc1ccc(OS(=O)(=O)O)cc1)NC(=O)[C@H](CC(=O)O)NC(=O)COCCOCCNC(=O)COCCOCCNC(=O)CC[C@H](NC(=O)CCCCCCCCCCCCCCCCC(=O)O)C(=O)O)C(=O)NCC(=O)N[C@@H](Cc1c[nH]c2ccccc12)C(=O)N[C@@H](CC(C)C)C(=O)N[C@@H](CC(=O)O)C(=O)N[C@@H](Cc1ccccc1)C(N)=O", "YES"],
  ["CCCC[C@H](NC(=O)[C@H](Cc1ccc(OS(=O)(=O)O)cc1)NC(=O)[C@H](CC(=O)O)NC(=O)COCCOCCNC(=O)COCCOCCNC(=O)CC[C@H](NC(=O)CCCCCCCCCCCCCCCCC(=O)O)C(=O)O)C(=O)NCC(=O)N[C@@H](Cc1c[nH]c2ccccc12)C(=O)N[C@@H](CCC(=O)O)C(=O)N[C@@H](CC(=O)O)C(=O)N[C@@H](Cc1ccccc1)C(N)=O ({C18 diacid-γGlu-AEEA-AEEA}-D[sY][Nle]GWEDF-NH2)", "NO"],
  ["CCCC[C@H](NC(=O)[C@H](Cc1ccc(CS(=O)(=O)O)cc1)NC(=O)[C@H](CC(=O)O)NC(=O)COCCOCCNC(=O)COCCOCCNC(=O)CC[C@H](NC(=O)CCCCCCCCCCCCCCCCC(=O)O)C(=O)O)C(=O)NCC(=O)N[C@@H](Cc1c[nH]c2ccccc12)C(=O)N[C@@H](CCCC)C(=O)N(C)[C@H](CC(=O)O)C(=O)N(C)[C@@H](Cc1ccccc1)C(=O)O", "NO"],
  ["CCCC[C@H](NC(=O)[C@H](Cc1ccc(OS(=O)(=O)O)cc1)NC(=O)[C@H](CC(=O)O)NC(=O)COCCOCCNC(=O)COCCOCCNC(=O)CC[C@H](NC(=O)CCCCCCCCCCCCCCCCC(=O)O)C(=O)O)C(=O)NCC(=O)N[C@@H](Cc1c[nH]c2ccccc12)C(=O)N[C@@H](CO)C(=O)N[C@@H](CC(=O)O)C(=O)N[C@@H](Cc1ccccc1)C(N)=O ({C18 diacid-γGlu-AEEA-AEEA}-D[sY][Nle]GWSDF-NH2)", "NO"],
  ["CCCC[C@H](NC(=O)[C@H](Cc1ccc(OS(=O)(=O)O)cc1)NC(=O)[C@H](CC(=O)O)NC(=O)COCCOCCNC(=O)COCCOCCNC(=O)CC[C@H](NC(=O)CCCCCCCCCCCCCCCCC(=O)O)C(=O)O)C(=O)NCC(=O)N[C@@H](Cc1c[nH]c2ccccc12)C(=O)N[C@@H](CCCCN)C(=O)N[C@@H](CC(=O)O)C(=O)N[C@@H](Cc1ccccc1)C(N)=O ({C18 diacid-γGlu-AEEA-AEEA}-D[sY][Nle]GWKDF-NH2)", "NO"],
  ["CCCC[C@H](NC(=O)[C@H](Cc1ccc(OS(=O)(=O)O)cc1)NC(=O)[C@H](CC(=O)O)NC(=O)COCCOCCNC(=O)COCCOCCNC(=O)CC[C@H](NC(=O)CCCCCCCCCCCCCCCCC(=O)O)C(=O)O)C(=O)NCC(=O)N[C@@H](Cc1c[nH]c2ccccc12)C(=O)N[C@@H](C)C(=O)N[C@@H](CC(=O)O)C(=O)N[C@@H](Cc1ccccc1)C(N)=O ({C18 diacid-γGlu-AEEA-AEEA}-D[sY][Nle]GWADF-NH2)", "NO"]
]}
